The values you see were collected from patent US9346761B2.

- SYSTEM: Full-length human PRMT6 (Homo sapiens, UniProt Q96LA8)
- Sequence (Q96LA8 with tags, fused parts or gaps): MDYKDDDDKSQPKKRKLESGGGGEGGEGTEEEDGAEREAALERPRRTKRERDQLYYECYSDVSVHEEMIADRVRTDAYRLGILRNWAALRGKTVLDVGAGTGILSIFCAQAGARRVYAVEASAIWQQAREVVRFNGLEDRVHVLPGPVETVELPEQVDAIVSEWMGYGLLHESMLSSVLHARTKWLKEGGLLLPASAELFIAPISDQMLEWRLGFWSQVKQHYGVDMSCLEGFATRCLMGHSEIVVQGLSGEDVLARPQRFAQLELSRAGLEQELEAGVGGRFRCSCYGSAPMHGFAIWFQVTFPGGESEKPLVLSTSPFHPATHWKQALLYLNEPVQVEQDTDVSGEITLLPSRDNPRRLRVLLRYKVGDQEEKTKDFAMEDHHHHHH
A collection of molecules and their measured IC50

[
  {
    "MOL": "CNCCN(C)Cc1c[nH]nc1-c1ccc(C(F)(F)F)cc1",
    "IC50": "< 100 nM"
  },
  {
    "MOL": "CCNC(=O)c1ccc(-c2n[nH]cc2CN(C)CCN)cc1",
    "IC50": "< 100 nM"
  },
  {
    "MOL": "CN(CCN)Cc1c[nH]nc1-c1ccc(N2CCN(C(=O)Cc3ccccc3)CC2)cc1",
    "IC50": "< 100 nM"
  },
  {
    "MOL": "CCn1cc(CN(C)CCNC)c(-c2ccc(F)cc2)n1",
    "IC50": "101 to 1000 nM"
  },
  {
    "MOL": "CC(C)CN(C)C(=O)c1ccc(-c2n[nH]cc2CN(C)CCN)cc1",
    "IC50": "< 100 nM"
  },
  {
    "MOL": "CN(CCN)Cc1cnn(C2COC2)c1-c1ccc(F)cc1",
    "IC50": "101 to 1000 nM"
  },
  {
    "MOL": "CN(CCN)Cc1c[nH]nc1-c1cc(F)cc(Cl)c1",
    "IC50": "< 100 nM"
  },
  {
    "MOL": "CN(CCN)Cc1cn(CCO)nc1-c1ccc(F)cc1",
    "IC50": "1010 to 3000 nM"
  },
  {
    "MOL": "C=CC(=O)Nc1cccc(-c2[nH]ncc2CN(C)CCNC)c1",
    "IC50": "101 to 1000 nM"
  }
]
